Test system: Rattus norvegicus
testProtocol: Acute toxicity in sc dosed albino rat
Assay type: organism-based
cond: in vivo
Lab note: anything with LD90 below 0.7 mg/kg is marked condition met; values at 0.7 mg/kg or higher are marked condition not met.

> print(dat)
                                   compound   qualitativelabel
1  CCN1CC2=C(N=C3N(c4ccccc4)N=C(C(=O)Nc4ccccc4)N3C2c2ccc(C)cc2)/C(=C/c2ccc(C)cc2)C1 (stereo not given)  condition not met
2  CCN1C/C(=C\c2ccc(C)cc2)c2nc3nc4n(c(=O)c3c(-c3ccc(C)cc3)c2C1)C(=O)CS4  condition not met
3  CCOC(=O)C1=NN(c2ccc(C)cc2)C2=NC3=C(CN(CC)C/C3=C\c3ccc(C)cc3)C(c3ccc(C)cc3)N12 (stereo not given)      condition met
4  CCN1CC2=C(N=C3N(c4ccc(Cl)cc4)N=C(C(C)=O)N3C2c2ccc(C)cc2)/C(=C/c2ccc(C)cc2)C1 (stereo not given)  condition not met

Note: attention shifts to another entry.
Dear reviewer, please state whether CCN1CC2=C(NC(=S)NC2c2ccc(C)cc2)/C(=C/c2ccc(C)cc2)C1 (stereo not given) has LD90 strictly beneath 0.7 mg/kg.
condition met
